- System: HT-29
- experiment.summary: Interexperimental ratio of hypoxic TPZ C10 to hypoxic BTO C10 using human adenocarcinoma HT-29 cell line
- Format: functional
value.type: RHT

Example molecules with recorded RHT:
CS(=O)(=O)c1cccc2c1[n+]([O-])nc(N)[n+]2[O-] : 0.4
Nc1n[n+]([O-])c2c(F)cccc2[n+]1[O-] : 2.5
Nc1n[n+]([O-])c2cc([N+](=O)[O-])ccc2[n+]1[O-] : 6.7
Nc1n[n+]([O-])c2ccccc2[n+]1[O-] : 1
COc1cccc2c1[n+]([O-])nc(N)[n+]2[O-] : 0.2

Input line: RHT lookup needed for Nc1n[n+]([O-])c2cc(F)ccc2[n+]1[O-] , thanks.
Output line: 2.8

Input line: RHT lookup needed for Nc1n[n+]([O-])c2ccc(Cl)cc2[n+]1[O-] , thanks.
Output line: 4.1

Input line: RHT lookup needed for Cc1ccc2c(c1)[n+]([O-])c(N)n[n+]2[O-] , thanks.
Output line: 0.4

Input line: RHT lookup needed for Nc1n[n+]([O-])c2cc(C(F)(F)F)ccc2[n+]1[O-] , thanks.
Output line: 2.5

Input line: RHT lookup needed for CN(C)c1cccc2c1[n+]([O-])c(N)n[n+]2[O-] , thanks.
Output line: 0.2

Input line: RHT lookup needed for Nc1n[n+]([O-])c2c(Cl)cccc2[n+]1[O-] , thanks.
Output line: 9.6

Input line: RHT lookup needed for Nc1n[n+]([O-])c2cc(Cl)ccc2[n+]1[O-] , thanks.
Output line: 7.2

The measurements presented in this section are drawn from ChEMBL document CHEMBL1145015.
